Cmax: recorded values
experiment.description: Food-effect two-period crossover trial: plasma pharmacokinetics after a single 200 mg oral dose of Ginsenoside CK Tablets
Type: in vivo, human
setup.conditions: male, human, plasma, po, 200 mg, plasma; single oral 200 mg CK; HF, male; read-out: Cmax

# molecule, units.of.measure, Cmax
data = [
    ("CC(C)=CCC[C@](C)(O)C1CC[C@]2(C)C1[C@H](O)CC1[C@@]3(C)CC[C@H](O)C(C)(C)C3CC[C@]12C (stereo partly drawn) [20(S)-PPD, 20(S)-protopanaxadiol]", "ng/mL", 3.9),
    ("CC(C)=CCCC(C)(OC1OC(CO)C(O)C(O)C1O)C1CCC2(C)C1C(O)CC1C3(C)CCC(O)C(C)(C)C3CCC12C (centres unmarked) [CK]", "ng/mL", 1300),
]

###

experiment.description: Early clinical trial: sex differences of ginsenoside compound K pharmacokinetics (Supplementary Table 1)
setup.conditions: male, human, in vivo

# molecule, units.of.measure, half-life
measured = [
    ("CC(C)=CCCC(C)(OC1OC(CO)C(O)C(O)C1O)C1CCC2(C)C1C(O)CC1C3(C)CCC(O)C(C)(C)C3CCC12C (stereo not shown)", "min", 249),
]

###

experiment.description: Food-effect two-period crossover trial: plasma pharmacokinetics after a single 200 mg oral dose of Ginsenoside CK Tablets
Format: in vivo, human
setup.conditions: female, human, plasma, po, 200 mg; single oral 200 mg CK; HF
observation.type: AUC(0-t) (ng·h/mL)

# molecule, observation.type, numeric.value
records = [
    ("CC(C)=CCC[C@](C)(O)C1CC[C@]2(C)C1[C@H](O)CC1[C@@]3(C)CC[C@H](O)C(C)(C)C3CC[C@]12C (stereo partly drawn) [20(S)-PPD, 20(S)-protopanaxadiol]", "AUC(0-t)", 132),
    ("CC(C)=CCCC(C)(OC1OC(CO)C(O)C(O)C1O)C1CCC2(C)C1C(O)CC1C3(C)CCC(O)C(C)(C)C3CCC12C (centres unmarked)", "AUC(0-t)", 15600),
]

###

experiment.description: Food-effect two-period crossover trial: plasma pharmacokinetics after a single 200 mg oral dose of Ginsenoside CK Tablets
Assay type: in vivo, human
setup.conditions: male, human, plasma, po, 200 mg, median (range); single oral 200 mg CK; HF
observation.type: Tmax (h)

# compound, observation.type, numeric.value
rows = [
    ("CC(C)=CCC[C@](C)(O)C1CC[C@]2(C)C1[C@H](O)CC1[C@@]3(C)CC[C@H](O)C(C)(C)C3CC[C@]12C (stereo partly drawn) [20(S)-PPD, 20(S)-protopanaxadiol]", "Tmax", 26),
]

###

Below: a set of entries, each annotated with reported half-life.
experiment.description: Food-effect two-period crossover trial: plasma pharmacokinetics after a single 200 mg oral dose of Ginsenoside CK Tablets
Format: in vivo, human
setup.conditions: female, human, plasma, po, 200 mg, plasma; single oral 200 mg CK; FO, female; read-out: t1/2 (converted)
observation.type: half-life

# compound, result
rows = [
    ("CC(C)=CCC[C@](C)(O)C1CC[C@]2(C)C1[C@H](O)CC1[C@@]3(C)CC[C@H](O)C(C)(C)C3CC[C@]12C (stereo partly drawn) [20(S)-PPD, 20(S)-protopanaxadiol]", "19.9 h"),
    ("CC(C)=CCCC(C)(OC1OC(CO)C(O)C(O)C1O)C1CCC2(C)C1C(O)CC1C3(C)CCC(O)C(C)(C)C3CCC12C (centres unmarked) [CK]", "26.9 h"),
]

###

experiment.description: Food-effect two-period crossover trial: plasma pharmacokinetics after a single 200 mg oral dose of Ginsenoside CK Tablets
Assay type: in vivo, human
setup.conditions: both sexes, human, plasma, po, 200 mg; single oral 200 mg CK; FO, all subjects
Entries and their measured AUC(0-t) follow.

# compound, AUC(0-t) / ng·h/mL
measured = [
    ("CC(C)=CCCC(C)(OC1OC(CO)C(O)C(O)C1O)C1CCC2(C)C1C(O)CC1C3(C)CCC(O)C(C)(C)C3CCC12C (centres unmarked)", 5750),
    ("CC(C)=CCC[C@](C)(O)C1CC[C@]2(C)C1[C@H](O)CC1[C@@]3(C)CC[C@H](O)C(C)(C)C3CC[C@]12C (stereo partly drawn) [20(S)-PPD, 20(S)-protopanaxadiol]", 161),
]

###

The following compounds are shown together with reported Cmax values.
experiment.description: Food-effect two-period crossover trial: plasma pharmacokinetics after a single 200 mg oral dose of Ginsenoside CK Tablets
Type: in vivo, human
setup.conditions: male, human, plasma, po, 200 mg, plasma; single oral 200 mg CK; FO, male; read-out: Cmax
observation.type: Cmax (ng/mL)

# compound, observation.type, numeric.value
measured = [
    ("CC(C)=CCC[C@](C)(O)C1CC[C@]2(C)C1[C@H](O)CC1[C@@]3(C)CC[C@H](O)C(C)(C)C3CC[C@]12C (stereo partly drawn) [20(S)-PPD, 20(S)-protopanaxadiol]", "Cmax", 4.9),
    ("CC(C)=CCCC(C)(OC1OC(CO)C(O)C(O)C1O)C1CCC2(C)C1C(O)CC1C3(C)CCC(O)C(C)(C)C3CCC12C (centres unmarked)", "Cmax", 672),
]

###

Items are presented alongside their recorded Cmax.
experiment.description: Food-effect two-period crossover trial: plasma pharmacokinetics after a single 200 mg oral dose of Ginsenoside CK Tablets
Type: in vivo, human
setup.conditions: human, plasma, po, 200 mg, plasma; single oral 200 mg CK; HF, all subjects; read-out: Cmax
observation.type: Cmax (ng/mL)

# compound, observation.type, numeric.value
data = [
    ("CC(C)=CCC[C@](C)(O)C1CC[C@]2(C)C1[C@H](O)CC1[C@@]3(C)CC[C@H](O)C(C)(C)C3CC[C@]12C (stereo partly drawn) [20(S)-PPD, 20(S)-protopanaxadiol]", "Cmax", 3.7),
    ("CC(C)=CCCC(C)(OC1OC(CO)C(O)C(O)C1O)C1CCC2(C)C1C(O)CC1C3(C)CCC(O)C(C)(C)C3CCC12C (centres unmarked)", "Cmax", 1570),
]

###

Below, each of the compounds is paired with its reported MRT inf value.
experiment.description: Food-effect two-period crossover trial: plasma pharmacokinetics after a single 200 mg oral dose of Ginsenoside CK Tablets
Type: in vivo, human
setup.conditions: male, human, plasma, po, 200 mg, single oral 200 mg CK; HF
Experimental: The food-effect trial was an open-label, randomized, two-period, two-treatment crossover trial, carried out from 15 January to 31 March 2015. […] Descriptive statistics of PK parameters were calculated using established non-compartmental methods, utilizing the WinNonLin version 6.1 software (Pharsight Corporation, USA). […] The values of AUC were calculated using conventional trapezoidal and log-trapezoidal methods and the extrapolated area (Rowland and Tozer, [1995]). […]

# compound, units.of.measure, MRT inf
measured = [
    ("CC(C)=CCCC(C)(OC1OC(CO)C(O)C(O)C1O)C1CCC2(C)C1C(O)CC1C3(C)CCC(O)C(C)(C)C3CCC12C (centres unmarked)", "h", 14.5),
    ("CC(C)=CCC[C@](C)(O)C1CC[C@]2(C)C1[C@H](O)CC1[C@@]3(C)CC[C@H](O)C(C)(C)C3CC[C@]12C (stereo partly drawn) [20(S)-PPD, 20(S)-protopanaxadiol]", "h", 42.2),
]

###

experiment.description: Food-effect two-period crossover trial: plasma pharmacokinetics after a single 200 mg oral dose of Ginsenoside CK Tablets
Assay type: in vivo, human
setup.conditions: both sexes, human, plasma, oral, 200 mg, FO and HF, male and female groups; read-out: mean t1/2, range over all treatments
observation.type: half-life

# compound, result
data = [
    ("CC(C)=CCCC(C)(OC1OC(CO)C(O)C(O)C1O)C1CCC2(C)C1C(O)CC1C3(C)CCC(O)C(C)(C)C3CCC12C (stereo not shown)", "24 to 28.4 h"),
]

###

experiment.description: Food-effect two-period crossover trial: plasma pharmacokinetics after a single 200 mg oral dose of Ginsenoside CK Tablets
Assay type: in vivo, human
setup.conditions: human, plasma, po, 200 mg, plasma; single oral 200 mg CK; FO, all subjects; read-out: Cmax
observation.type: Cmax (ng/mL)

# compound, observation.type, numeric.value
measured = [
    ("CC(C)=CCCC(C)(OC1OC(CO)C(O)C(O)C1O)C1CCC2(C)C1C(O)CC1C3(C)CCC(O)C(C)(C)C3CCC12C (centres unmarked)", "Cmax", 797),
    ("CC(C)=CCC[C@](C)(O)C1CC[C@]2(C)C1[C@H](O)CC1[C@@]3(C)CC[C@H](O)C(C)(C)C3CC[C@]12C (stereo partly drawn) [20(S)-PPD, 20(S)-protopanaxadiol]", "Cmax", 5.7),
]

###

experiment.description: Early clinical trial: sex differences of ginsenoside compound K pharmacokinetics (Supplementary Table 1)
setup.conditions: male, human, in vivo

# compound, units.of.measure, Tmax
rows = [
    ("CC(C)=CCCC(C)(OC1OC(CO)C(O)C(O)C1O)C1CCC2(C)C1C(O)CC1C3(C)CCC(O)C(C)(C)C3CCC12C (stereo not shown)", "h", 3.19),
]

The measurements presented in this section are drawn from paper PMC5602130.
